Values compiled from ChEMBL document CHEMBL5055631.

Test system: NCI-H522
assay-summary: Anticancer activity against human NCI-H522 cells assessed as cell growth inhibition incubated for 48 hrs by SRB method
Assay type: functional
Listed below: GI50 values for each entry.
Hi! Could you send only the number? It should be in µM, unit omitted.

Use these answered entries as a reference point.
C=C1C(=O)O[C@H]2[C@H]1CC/C(COC(=O)NCCc1ccc(OC)cc1)=C\CC[C@@]1(C)O[C@@H]21: 1.82
C=C1C(=O)O[C@H]2[C@H]1CC/C(COC(=O)NCc1ccccc1OC)=C\CC[C@@]1(C)O[C@@H]21: 0.35
C=C1C(=O)O[C@H]2[C@H]1CC/C(COC(=O)NCCc1cccc(OC)c1)=C\CC[C@@]1(C)O[C@@H]21: 1.02
C=C1C(=O)O[C@H]2[C@H]1CC/C(COC(=O)NCc1cc(OC)cc(OC)c1)=C\CC[C@@]1(C)O[C@@H]21: 0.34

Briefly, GI50 measured for "C=C1C(=O)O[C@H]2[C@H]1CC/C(COC(=O)NCCc1ccc(Br)cc1)=C\CC[C@@]1(C)O[C@@H]21" : 1.16

Briefly, GI50 measured for "C=C1C(=O)O[C@H]2[C@H]1CC/C(COC(=O)NCc1ccc(OC)cc1)=C\CC[C@@]1(C)O[C@@H]21" : 0.17

---

Tested on: U-251
assay-summary: Anticancer activity against human U-251 cells assessed as cell growth inhibition incubated for 48 hrs by SRB method
Format: functional
Listed below: GI50 values for each entry.
Hi! Could you send only the number? It should be in nM, unit omitted.

C=C1C(=O)O[C@H]2[C@H]1CC/C(COC(=O)NCc1ccc(OC)cc1)=C\CC[C@@]1(C)O[C@@H]21: 960
C=C1C(=O)O[C@H]2[C@H]1CC/C(COC(=O)NCCc1ccc(OC)cc1)=C\CC[C@@]1(C)O[C@@H]21: 11100
C=C1C(=O)O[C@H]2[C@H]1CC/C(COC(=O)NCCc1ccc(Br)cc1)=C\CC[C@@]1(C)O[C@@H]21: 1400
C=C1C(=O)O[C@H]2[C@H]1CC/C(COC(=O)NCc1ccccc1OC)=C\CC[C@@]1(C)O[C@@H]21: 2200

Kindly consider the entry below.
Briefly, GI50 measured for "C=C1C(=O)O[C@H]2[C@H]1CC/C(COC(=O)NCc1cc(OC)cc(OC)c1)=C\CC[C@@]1(C)O[C@@H]21" : 3160

---

System: SR
assay-summary: Anticancer activity against human SR cells assessed as cell growth inhibition incubated for 48 hrs by SRB method
Type: functional
value-kind: GI50 (nM)
Hi! Could you send only the number? It should be in nM, unit omitted.

C=C1C(=O)O[C@H]2[C@H]1CC/C(COC(=O)NCc1ccccc1OC)=C\CC[C@@]1(C)O[C@@H]21: 670

Briefly, GI50 measured for "C=C1C(=O)O[C@H]2[C@H]1CC/C(COC(=O)NCc1ccc(OC)cc1)=C\CC[C@@]1(C)O[C@@H]21" : 300

Briefly, GI50 measured for "C=C1C(=O)O[C@H]2[C@H]1CC/C(COC(=O)NCCc1ccc(Br)cc1)=C\CC[C@@]1(C)O[C@@H]21" : 430

---

System: M14
assay-summary: Anticancer activity against human M14 cells assessed as cell growth inhibition incubated for 48 hrs by SRB method
Format: functional
Listed below: GI50 values for each entry.
Answer format: number, then unit.

Use these answered entries as a reference point.
C=C1C(=O)O[C@H]2[C@H]1CC/C(COC(=O)NCCc1ccc(Br)cc1)=C\CC[C@@]1(C)O[C@@H]21: 1260 nM
C=C1C(=O)O[C@H]2[C@H]1CC/C(COC(=O)NCc1ccccc1OC)=C\CC[C@@]1(C)O[C@@H]21: 1100 nM
C=C1C(=O)O[C@H]2[C@H]1CC/C(COC(=O)NCCc1cccc(OC)c1)=C\CC[C@@]1(C)O[C@@H]21: 1290 nM
C=C1C(=O)O[C@H]2[C@H]1CC/C(COC(=O)NCc1cc(OC)cc(OC)c1)=C\CC[C@@]1(C)O[C@@H]21: 1640 nM
C=C1C(=O)O[C@H]2[C@H]1CC/C(COC(=O)NCc1ccc(OC)cc1)=C\CC[C@@]1(C)O[C@@H]21: 190 nM

Kindly consider the entry below.
Briefly, GI50 measured for "C=C1C(=O)O[C@H]2[C@H]1CC/C(COC(=O)NCCc1ccc(OC)cc1)=C\CC[C@@]1(C)O[C@@H]21" : 1980 nM

---

Tested on: MOLT-4
assay-summary: Anticancer activity against human MOLT-4 assessed as cell growth inhibition incubated for 48 hrs by SRB method
Format: functional
Listed below: GI50 values for each entry.
Hi! Could you send only the number? It should be in µM, unit omitted.

Use these answered entries as a reference point.
C=C1C(=O)O[C@H]2[C@H]1CC/C(COC(=O)NCCc1ccc(OC)cc1)=C\CC[C@@]1(C)O[C@@H]21: 2.61
C=C1C(=O)O[C@H]2[C@H]1CC/C(COC(=O)NCCc1ccc(Br)cc1)=C\CC[C@@]1(C)O[C@@H]21: 1.69
C=C1C(=O)O[C@H]2[C@H]1CC/C(COC(=O)NCc1ccc(OC)cc1)=C\CC[C@@]1(C)O[C@@H]21: 0.28
C=C1C(=O)O[C@H]2[C@H]1CC/C(COC(=O)NCc1cc(OC)cc(OC)c1)=C\CC[C@@]1(C)O[C@@H]21: 2
C=C1C(=O)O[C@H]2[C@H]1CC/C(COC(=O)NCCc1cccc(OC)c1)=C\CC[C@@]1(C)O[C@@H]21: 2.09

Kindly consider the entry below.
Briefly, GI50 measured for "C=C1C(=O)O[C@H]2[C@H]1CC/C(COC(=O)NCc1ccccc1OC)=C\CC[C@@]1(C)O[C@@H]21" : 2.53

---

Test system: SF-295
assay-summary: Anticancer activity against human SF-295 cells assessed as cell growth inhibition incubated for 48 hrs by SRB method
Type: functional
Listed below: GI50 values for each entry.
Hi! Could you send only the number? It should be in µM, unit omitted.

Use these answered entries as a reference point.
C=C1C(=O)O[C@H]2[C@H]1CC/C(COC(=O)NCc1cc(OC)cc(OC)c1)=C\CC[C@@]1(C)O[C@@H]21: 7.78
C=C1C(=O)O[C@H]2[C@H]1CC/C(COC(=O)NCCc1cccc(OC)c1)=C\CC[C@@]1(C)O[C@@H]21: 7.26
C=C1C(=O)O[C@H]2[C@H]1CC/C(COC(=O)NCc1ccc(OC)cc1)=C\CC[C@@]1(C)O[C@@H]21: 10.8
C=C1C(=O)O[C@H]2[C@H]1CC/C(COC(=O)NCCc1ccc(Br)cc1)=C\CC[C@@]1(C)O[C@@H]21: 3.81
C=C1C(=O)O[C@H]2[C@H]1CC/C(COC(=O)NCc1ccccc1OC)=C\CC[C@@]1(C)O[C@@H]21: 5.02

Kindly consider the entry below.
Briefly, GI50 measured for "C=C1C(=O)O[C@H]2[C@H]1CC/C(COC(=O)NCCc1ccc(OC)cc1)=C\CC[C@@]1(C)O[C@@H]21" : 13.5

---

System: NCI-H226
assay-summary: Anticancer activity against human NCI-H226 cells assessed as cell growth inhibition incubated for 48 hrs by SRB method
Format: functional
value-kind: GI50
Answer format: number, then unit.

Use these answered entries as a reference point.
C=C1C(=O)O[C@H]2[C@H]1CC/C(COC(=O)NCc1ccc(OC)cc1)=C\CC[C@@]1(C)O[C@@H]21: 0.48 µM
C=C1C(=O)O[C@H]2[C@H]1CC/C(COC(=O)NCc1cc(OC)cc(OC)c1)=C\CC[C@@]1(C)O[C@@H]21: 2.02 µM
C=C1C(=O)O[C@H]2[C@H]1CC/C(COC(=O)NCCc1ccc(OC)cc1)=C\CC[C@@]1(C)O[C@@H]21: 4.11 µM

Kindly consider the entry below.
Briefly, GI50 measured for "C=C1C(=O)O[C@H]2[C@H]1CC/C(COC(=O)NCCc1cccc(OC)c1)=C\CC[C@@]1(C)O[C@@H]21" : 1.57 µM

---

Listed below: GI50 values for each entry.
Test system: SR
assay-summary: Anticancer activity against human SR cells assessed as cell growth inhibition incubated for 48 hrs by SRB method
Assay type: functional

C=C1C(=O)O[C@H]2[C@H]1CC/C(COC(=O)NCCc1ccc(OC)cc1)=C\CC[C@@]1(C)O[C@@H]21: 2.07 µM
C=C1C(=O)O[C@H]2[C@H]1CC/C(COC(=O)NCCc1cccc(OC)c1)=C\CC[C@@]1(C)O[C@@H]21: 0.51 µM

Briefly, GI50 measured for "C=C1C(=O)O[C@H]2[C@H]1CC/C(COC(=O)NCc1cc(OC)cc(OC)c1)=C\CC[C@@]1(C)O[C@@H]21" : 0.32 µM
